- assayComment: Therapeutic index, ratio of CC50 for human TE671 cells to IC50 for antiviral activity against Japanese encephalitis virus infected in human TE671 cells assessed as reduction in virus yield by plaque assay
- Assay type: toxicity, cell-based
- setupConditions: read-out: Ratio CC50/IC50
Answer each item with its documented selectivity ratio.
Give bare numbers.

These solved cases illustrate the format of a correct answer.
# inputSmiles, selectivity ratio
rows = [
    ("CCOC(=O)C1=C(Nc2ccccc2Br)OCC1=O", 50.2),
    ("CCOC(=O)C1=C(Nc2cccc(Br)c2)OCC1=O", 12.4),
]

Okay, next one:
Sample `CCOC(=O)C1=C(Nc2ccc(Br)cc2)OCC1=O` ; selectivity ratio observed: 16.6

* * *

Give measured CC50 at 48 h for each item. Keep answers brief.
- assayComment: Cytotoxicity against human TE671 cells assessed as reduction in cell viability after 48 hrs by MTT assay
- Format: cell-based, TE-671
Give bare numbers, in µM.

Here are 3 molecules. What values of CC50 at 48 h were reported for them?
1. CCOC(=O)C1=C(Nc2ccc(Br)cc2)OCC1=O
2. CCOC(=O)C1=C(Nc2cccc(Br)c2)OCC1=O
3. CCOC(=O)C1=C(Nc2ccccc2Br)OCC1=O

Result:
1. 129
2. 151
3. 232

* * *

- System: Enterovirus A71
- assayComment: Antiviral activity against Enterovirus A71 infected in human RD cells assessed as reduction in viral yield measured at 48 hrs post-infection by plaque reduction assay
- Format: functional, organism-based
- setupConditions: Enterovirus A
assayMetric: pIC50
One number for each entry, as −log10 of the molar value.

So for `CCOC(=O)C1=C(Nc2cc(C)cc(C)c2)OCC1=O` , the logged pIC50 turned out to be 3.70

* * *

Could you please report measured CC50 at 48 h for the items listed next?
- assayComment: Cytotoxicity against human TE671 cells assessed as reduction in cell viability after 48 hrs by MTT assay
- Type: cell-based, TE-671

# inputSmiles, CC50 at 48 h
measured = [
    ("CCOC(=O)C1=C(Nc2cccc(Cl)c2)OCC1=O", "> 100 µM"),
    ("CCOC(=O)C1=C(Nc2ccccc2Cl)OCC1=O", "> 100 µM"),
]

Shift focus to the following entry.
The molecule listed as `CCOC(=O)C1=C(Nc2ccc(Cl)cc2)OCC1=O` has a reported CC50 at 48 h of > 100 µM
